Test system: U251 CNS
Respond with a class label; see yes (1) = active, no (0) = inactive

Example cases with answers are listed next.
>  <molecule>
COc1cc(-n2ccnc2-c2ccc3ccccc3c2)cc(OC)c1OC

>  <label-value>
yes (1)

$$$$
>  <molecule>
NCCCCC(NC(=O)C(N)CCCN=C(N)N)C(=O)NC(CCCCN)C(=O)NC(CCCN=C(N)N)C(=O)NC(CCCN=C(N)N)C(=O)NC(CCC(N)=O)C(=O)NC(CCCN=C(N)N)C(=O)NC(CCCN=C(N)N)C(=O)NC(CCCN=C(N)N)C(=O)NCC(=O)NCC(=O)O (stereo not given)

>  <label-value>
no (0)

$$$$
>  <molecule>
COc1ccccc1C#Cc1ccccc1C#Cc1ccc(OCCCCCCOc2ccccc2C#Cc2ccccc2C#Cc2ccccc2OC)cc1

>  <label-value>
no (0)

$$$$
>  <molecule>
O=S(=O)(N=C1C(Cl)=C(Cl)C(=NS(=O)(=O)c2ccccc2)C(Cl)=C1Cl)c1ccccc1

>  <label-value>
no (0)

$$$$
>  <molecule>
CCOC(=O)c1[nH]c2cc(Cl)ccc2c1[C@@H](C(=O)NC(C)(C)C)N(CC)C(=O)CCCCC#Cc1cccc2c1CN(C1CCC(=O)NC1=O)C2=O (stereo not given in full)

>  <label-value>
no (0)

$$$$

Problem: How was NC(=O)c1cc(N2CC2)c([N+](=O)[O-])cc1[N+](=O)[O-] classified in this test?
Result: no (0)

Problem: Now consider O=c1cc(-c2ccc(F)cc2)[nH]c2ncccc12 .
Result: no (0)

Problem: Now consider COC[C@H](NC(=O)c1cnc(C)s1)C(=O)N[C@@H](COC)C(=O)N[C@@H](Cc1ccccc1)C(=O)[C@@]1(C)CO1 .
Result: no (0)

Problem: Now consider CC1(C)N=C(N)N=C(N)N1c1ccc(CNC(=O)Nc2ccc(S(=O)(=O)F)c(Cl)c2)c(Cl)c1 .
Result: no (0)

Problem: Now consider Fc1cccc(COc2ccc(Nc3ncnc4onc(-c5ccccc5)c34)cc2)c1 .
Result: yes (1)

Problem: Now consider CCN(CC)CCN(CC)CC.CCN(CC)CCN(CC)CC.[Cu+2].[Cu+2].[O-][Cl+3]([O-])([O-])[O-].[OH3+].[OH3+] .
Result: no (0)

Problem: Now consider COc1cnc2c(c1)C(=O)c1c-2n(CCCN2CCCC2)c(=O)c2cc([N+](=O)[O-])ccc12 .
Result: yes (1)

Problem: Now consider COc1cc(CCC[P+](c2ccccc2)(c2ccccc2)c2ccccc2)c(OC)c2c1OCO2 .
Result: no (0)

Problem: Now consider COc1ccc2c(c1)c(-c1nc(-c3cn(C)c4ccncc34)cs1)cn2C .
Result: no (0)

Problem: Now consider CC1=C([Te]c2ccccc2)C(=O)c2ccccc2C1=O .
Result: yes (1)
